# koff listing for each entry below
Biological target: recombinant human CD3ε (1-27) peptide with a C-terminal Tencon25 fusion (human) (UniProt P07766)
Sequence (P07766 22-48): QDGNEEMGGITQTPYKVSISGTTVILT
Assay: ProteOn SPR, mAb captured by anti-human Fc, antigen as analyte
Give the number; s⁻¹ is assumed, so skip it.

Binder: CD3B312 (antibody, V domains shown) VH: QVQLQQSGPRLVRPSQTLSLTCAISGDSVFNNNAAWSWIRQSPSRGLEWLGRTYYRSKWLYDYAVSVKSRITVNPDTSRNQFTLQLNSVTPEDTALYYCARGYSSSFDYWGQGTLVTVSS VL: QSALTQPASVSGSPGQSITISCTGTSSNIGTYKFVSWYQQHPDKAPKVLLYEVSKRPSGVSSRFSGSKSGNTASLTISGLQAEDQADYHCCSYAGSGTLLFGGGTKLTVL
koff [s⁻¹]: 0.00187
--
Binder: BLW-2E6 variant CD3H219/CD3L160 (LC C91L) (antibody, V domains shown) VH: QVQLQQSGPRLVRPSQTLSLTCAISGDSVFNNNAAWSWIRQSPSRGLEWLGRTYYRSKWLYDYAVSVKSRITVNPDTSRNQFTLQLNSVTPEDTALYYCARGYSSSFDYWGQGTLVTVSS VL: QSALTQPASVSGSPGQSITISCTGTSSNIGTYKFVSWYQQHPDKAPKVLLYEVSKRPSGVSSRFSGSKSGNTASLTISGLQAEDQADYHCLSYAGSGTLLFGGGTKLTVL
koff [s⁻¹]: 0.00405
--
Binder: CD3B376 (antibody, human IgG4 S228P, lambda, F234A L235A, V domains shown) VH: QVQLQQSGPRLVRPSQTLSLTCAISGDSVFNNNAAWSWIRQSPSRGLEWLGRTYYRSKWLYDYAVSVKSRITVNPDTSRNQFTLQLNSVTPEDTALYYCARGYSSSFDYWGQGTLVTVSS VL: QSALTQPASVSGSPGQSITISCTGTSSNIGTYKFVSWYQQHPDKAPKVLLYEVSKRPSGVSSRFSGSKSGNTASLTISGLQAEDQADYHCVSYAGSGTLLFGGGTKLTVLG
koff [s⁻¹]: 0.00237

Would you kindly look at the next entry?
Data request: Look up and state reported koff for BLW-2E6 variant CD3H219/CD3L137 (antibody, V domains shown) VH: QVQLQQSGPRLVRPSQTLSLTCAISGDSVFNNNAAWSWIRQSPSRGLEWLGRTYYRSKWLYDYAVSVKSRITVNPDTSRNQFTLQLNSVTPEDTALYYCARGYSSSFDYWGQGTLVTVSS VL: QSALTQPASVSGSPGQSITISCTGTSSNIGTYKFVSWYQQHPGKAPKVMIYEVSKRPSGVSNRFSGSKSGNTASLTISGLQAEDEADYYCCSYAGSGTLLFGGGTKLTVL
Data returned: 0.00202
